tested on: Staphylococcus aureus; assay: Antibacterial activity against Staphylococcus aureus ATCC 14154; assay type: functional
# key: entry, value: MIC

# mol, target.of.assay, units.symbol, readout.relation, MIC
data = [
    ("COc1ccc(C(=O)/C=C/C(=O)N2CCN(c3ccc(N4C[C@H](CNC(C)=O)OC4=O)cc3F)CC2)cc1", "Staphylococcus aureus", "mg/L", "≤", 0.12),
    ("CC(=O)NC[C@H]1CN(c2ccc(N3CCN(C(=O)/C=C/C(=O)c4ccc(Br)cc4)CC3)c(F)c2)C(=O)O1", "Staphylococcus aureus", "mg/L", "=", 2),
    ("CC(=O)/C=C/C(=O)N1CCN(c2ccc(N3C[C@H](CNC(C)=O)OC3=O)cc2F)CC1", "Staphylococcus aureus", "mg/L", "=", 1),
    ("CC(=O)NC[C@H]1CN(c2ccc(N3CCN(C(=O)/C=C/C(=O)c4ccccc4)CC3)c(F)c2)C(=O)O1", "Staphylococcus aureus", "mg/L", "≤", 0.12),
    ("CC(=O)NC[C@H]1CN(c2ccc(N3CCN(C(=O)/C=C/C(=O)c4cccc5ccccc45)CC3)c(F)c2)C(=O)O1", "Staphylococcus aureus", "mg/L", "=", 4),
    ("CC(=O)NC[C@H]1CN(c2ccc(N3CCN(C(=O)CO)CC3)c(F)c2)C(=O)O1", "Staphylococcus aureus", "mg/L", "=", 2),
    ("CC(=O)NC[C@H]1CN(c2ccc(N3CCN(C(=O)/C=C/c4ccccc4)CC3)c(F)c2)C(=O)O1", "Staphylococcus aureus", "mg/L", "=", 2),
    ("COc1ccc(C(=O)/C=C/C(=O)N2CCN(c3ccc(N4C[C@H](C/N=C(/C)S)OC4=O)cc3F)CC2)cc1", "Staphylococcus aureus", "mg/L", "=", 0.25),
    ("CC(=O)NC[C@H]1CN(c2ccc(N3CCN(C(=O)/C=C/C(=O)c4ccc(NC(C)=O)cc4)CC3)c(F)c2)C(=O)O1", "Staphylococcus aureus", "mg/L", "≤", 0.12),
]
